Target: human GnRH receptor (Homo sapiens, UniProt P30968)
Sequence (P30968 1-328): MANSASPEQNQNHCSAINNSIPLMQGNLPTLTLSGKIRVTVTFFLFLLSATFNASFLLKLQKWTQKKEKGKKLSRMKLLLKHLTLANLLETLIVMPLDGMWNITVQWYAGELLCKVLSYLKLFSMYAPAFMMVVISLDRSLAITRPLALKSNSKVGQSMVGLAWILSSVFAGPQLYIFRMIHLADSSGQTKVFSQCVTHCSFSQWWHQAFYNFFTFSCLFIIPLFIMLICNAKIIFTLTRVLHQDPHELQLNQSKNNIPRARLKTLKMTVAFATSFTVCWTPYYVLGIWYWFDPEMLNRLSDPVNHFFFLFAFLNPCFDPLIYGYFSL
pIC50: −log10 of the molar value.
quantity name: pIC50

Here is how some compounds turned out for pIC50.
| compound | pIC50 |
| --- | --- |
| O=C(C(C(=O)c1cccc(C(O)CO)c1)=C1Nc2cc(F)c(Cl)cc2N1)c1cc(F)cc(F)c1 (stereo not drawn) [Ex 2-12] | 9.82 |
| O=C(C(C(=O)c1cccc(C(O)CO)c1)=C1Nc2ccc(F)cc2N1)c1cc(F)cc(F)c1 (stereo not drawn) [Ex 2-5] | 10.00 |
| O=C(C(C(=O)c1cc(F)cc(F)c1F)=C1Nc2ccccc2N1)c1cccc(C(O)CO)c1 (stereo not drawn) [Ex 2-48] | 9.66 |

P: O=C(C(C(=O)c1cccc(C(O)CO)c1)=C1Nc2ccccc2N1)c1cccc(Cl)c1 (stereo not drawn) [Ex 2-50]
Q: O=C(C(C(=O)c1cccc([C@@H](O)CO)c1Cl)=C1Nc2ccccc2N1)c1cccc(F)c1 [Ex 4-21]
Between P and Q , which one has the lower reported pIC50 value? Lab note: record the label of whichever item you select. Q

---

Assay: Measurement of blood concentration of a compound by ex vivo binding assay
Settings: Wistar male rat, oral 10 mg/kg in 0.5% MC, serum 2 hours after administration, read-out: Blood compound concentration (B) 2 hour value
quantity name: concentration at 2 h (nM)

Here is how some compounds turned out for concentration at 2 h.
| compound | quantity name | recorded measurement |
| --- | --- | --- |
| O=C(C(C(=O)c1cccc(C(O)CO)c1)=C1Nc2cc(F)c(Cl)cc2N1)c1cc(F)cc(F)c1 (centres unmarked) [Ex 2-12] | concentration at 2 h | 920 |
| O=C(C(C(=O)c1cccc([C@@H](O)CO)c1Cl)=C1Nc2ccccc2N1)c1cccc(Cl)c1 [Ex 4-15] | concentration at 2 h | 1440 |
| O=C(C(C(=O)c1cccc(C(O)CO)c1)=C1Nc2ccccc2N1)c1cccc(F)c1 (centres unmarked) [Ex 2-7] | concentration at 2 h | 1650 |
| O=C(C(C(=O)c1cc(F)c(F)c(F)c1)=C1Nc2ccccc2N1)c1cccc(C(O)CO)c1 (centres unmarked) [Ex 2-4] | concentration at 2 h | 1310 |

1: O=C(C(C(=O)c1cccc([C@@H](O)CO)c1Cl)=C1Nc2ccccc2N1)c1cc(F)cc(F)c1 [Ex 4-30]
2: O=C(C(C(=O)c1cccc(C(O)CO)c1)=C1Nc2ccccc2N1)c1cc(F)cc(Cl)c1 (centres unmarked) [Ex 2-3]
3: O=C(C(C(=O)c1cccc([C@@H](O)CO)c1F)=C1Nc2ccccc2N1)c1cccc(F)c1 [Ex 4-4]
4: O=C(C(C(=O)c1cccc([C@@H](O)CO)c1Cl)=C1Nc2ccccc2N1)c1cccc(F)c1 [Ex 4-21]
Rank by concentration at 2 h (largest to smallest). Sort and list the labels as requested. 4, 1, 3, 2
(4: 2170 nM, 1: 1500 nM, 3: 1040 nM, 2: 710 nM)

I: O=C(C(C(=O)c1cc(C(O)CO)ccc1F)=C1Nc2ccccc2N1)c1cc(F)cc(F)c1 (centres unmarked) [Ex 2-20]
II: O=C(C(C(=O)c1ccc(F)c([C@@H](O)CO)c1)=C1Nc2ccccc2N1)c1cc(F)cc(F)c1 [Ex 4-22]
Pick one: I or II . Which has the bigger concentration at 2 h number? Lab note: record the label of whichever item you select. II

---

The reader will find IC50 measurements below, all made with human GnRH receptor (Homo sapiens, UniProt P30968).
quantity name: IC50 (nM)

Here is how some molecules turned out for IC50.
| molecule | tested on | recorded measurement |
| --- | --- | --- |
| Cc1c(C(=O)C(C(=O)c2cccc(Cl)c2)=C2Nc3ccccc3N2)cccc1[C@@H](O)CO | human GnRH receptor (Homo sapiens, UniProt P30968) | 0.18 |
| O=C(C(C(=O)c1cc(C(O)CO)ccc1F)=C1Nc2ccccc2N1)c1cc(F)cc(F)c1 (stereo not shown) | human GnRH receptor (Homo sapiens, UniProt P30968) | 0.2 |

a: Cc1c(C(=O)C(C(=O)c2ccccc2F)=C2Nc3ccccc3N2)cccc1[C@@H](O)CO
b: Cc1cccc(C(=O)C(C(=O)c2cccc([C@@H](O)CO)c2Cl)=C2Nc3ccccc3N2)c1
Pick one: a or b . Which has the bigger IC50 number? Lab note: record the label of whichever item you select. a
(a: 0.19 nM, b: 0.12 nM)

---

Test: Measurement of blood concentration of a compound by ex vivo binding assay
Conditions: Wistar male rat, oral 10 mg/kg in 0.5% MC, serum 2 hours after administration, read-out: Blood compound concentration (B) 2 hour value
quantity name: concentration at 2 h (nM)

Here is how some compounds turned out for concentration at 2 h.
| compound | quantity name | recorded measurement |
| --- | --- | --- |
| O=C(C(C(=O)c1cc(F)cc(F)c1F)=C1Nc2ccccc2N1)c1cccc(C(O)CO)c1 (stereo not shown) | concentration at 2 h | 2160 |
| Cc1c(C(=O)C(C(=O)c2ccccc2F)=C2Nc3ccccc3N2)cccc1[C@@H](O)CO | concentration at 2 h | 6440 |
| Cc1c(C(=O)C(C(=O)c2cccc(Cl)c2)=C2Nc3ccccc3N2)cccc1[C@@H](O)CO | concentration at 2 h | 1110 |
| CCCCc1c(C(=O)C(C(=O)c2cccc(F)c2)=C2Nc3ccccc3N2)cccc1[C@@H](O)CO | concentration at 2 h | 1790 |
| O=C(C(C(=O)c1cccc([C@@H](O)CO)c1)=C1Nc2ccccc2N1)c1cccc(F)c1 | concentration at 2 h | 1360 |

a: Cc1cccc(C(=O)C(C(=O)c2cccc([C@@H](O)CO)c2C)=C2Nc3ccccc3N2)c1
b: O=C(C(C(=O)c1cccc(C(O)CO)c1)=C1Nc2ccc(F)cc2N1)c1cc(F)cc(F)c1 (stereo not shown)
Pick one: a or b . Which has the bigger concentration at 2 h number? Lab note: record the label of whichever item you select. a
(a: 1390 nM, b: 820 nM)
